assay system: HIV-1 protease (Human immunodeficiency virus type 1 group M subtype B, UniProt P04585)
Construct: Purified HIV-1 protease was obtained as described below; made in house; host or cells: E. coli K12 L507/pHP10D (NRRL B-18560)
procedure summary: biochemical
recorded conditions: read-out: Fluorescence Assay IC50 (converted)
So basically: is IC50 under 0.01 µM? Then 1. Not under? Then -1.

// known answers, use as guide
smiles structure	class name
CC(C)[C@H](NC(=O)c1ccc2ccccc2n1)C(=O)N[C@@H](Cc1ccccc1)[C@H](O)Cc1ccccc1C(=O)NC(C)(C)C	-1
CC(C)(C)NC(=O)c1ccccc1C[C@@H](O)[C@H](Cc1ccccc1)NC(=O)[C@H](CC(N)=O)NC(=O)c1cc(Cl)c2ccccc2n1	1
CC(C)(C)NC(=O)c1ccccc1C[C@@H](O)[C@H](Cc1ccccc1)NC(=O)[C@H](CC(N)=O)NC(=O)c1ccc2cc(Cl)ccc2n1	1
CC(C)(C)NC(=O)c1sccc1C[C@@H](O)[C@H](Cc1ccccc1)NC(=O)[C@H](CC(N)=O)NC(=O)c1ccc2ccccc2n1	-1
CC(C)(C)NC(=O)c1ccccc1C[C@@H](O)[C@H](Cc1ccccc1)NC(=O)[C@H](CC(N)=O)NC(=O)c1cc2ccccc2cn1	-1

Lab note: next compound to report on.
Dear colleague, could you confirm whether IC50 of CC(C)(C)NC(=O)c1ccccc1C[C@@H](O)[C@H](Cc1ccccc1)NC(=O)[C@H](CC(N)=O)NC(=O)c1cc2ccccc2s1 falls below 0.01 µM? Thanks.
-1

// provenance: patent US5719287A
